- Assay target: Feline FcRn complex (FcRn-alpha subunit and beta-microglobulin) (feline)
- Method: SPR (Biacore), feline FcRn captured on SA chip, IgG flowed over, pH 6
Value kind: pKd
Give bare numbers, as −log10 of the molar value.

The measured pKd associated with feline IgG1a Fc mutant S428M, S434Y (antibody, part only; not given: Variable domains, not shown: another chain or arm of the molecule; small tags and cut ends) constant: ASTTAPSVFPLAPSCGTTSGATVALACLVLGYFPEPVTVSWNSGALTSGVHTFPAVLQASGLYSLSSMVTVPSSRWLSDTFTCNVAHPPSNTKVDKTVRKTDHPPGPKPCDCPKCPPPEMLGGPSIFIFPPKPKDTLSISRTPEVTCLVVDLGPDDSDVQITWFVDNTQVYTAKTSPREEQFNSTYRVVSVLPILHQDWLKGKEFKCKVNSKSLPSPIERTISKAKGQPHEPQVYVLPPAQEELSRNKVSVTCLIKSFHPPDIAVEWEITGQPEPENNYRTTPPQLDSDGTYFVYSKLSVDRSHWQRGNTYTCSVMHEALHYHHTQKSLTQSPGK reads 9.05
